- targetOrSystem: human V2 receptor (Homo sapiens, UniProt P30518)
- Construct: expressed in transfected cells
- Sequence (P30518 whole entry): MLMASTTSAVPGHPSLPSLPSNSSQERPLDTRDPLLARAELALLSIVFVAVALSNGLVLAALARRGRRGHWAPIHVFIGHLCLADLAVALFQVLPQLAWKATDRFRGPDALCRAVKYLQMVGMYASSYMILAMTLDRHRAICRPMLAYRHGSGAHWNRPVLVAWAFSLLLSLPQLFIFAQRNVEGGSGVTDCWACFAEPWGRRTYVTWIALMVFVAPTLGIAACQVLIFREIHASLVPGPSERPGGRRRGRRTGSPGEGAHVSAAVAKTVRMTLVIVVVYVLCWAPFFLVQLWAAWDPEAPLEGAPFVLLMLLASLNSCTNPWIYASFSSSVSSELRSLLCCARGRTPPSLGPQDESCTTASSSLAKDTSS
- procedureText: Calcium flux assay (FLIPR), agonist mode, CHO cells expressing human V2 + Gqs5
- Type: cell-based
- conditionLabel: CHO; maximum response normalized to endogenous full agonist = 100%; read-out: hV2 efficacy (%)
Positions of bridges follow the written chain, without caps; N, C: chain ends. Non-standard residues stand in square brackets, D forms with d. Residues, ends and D or L forms follow the SMILES beside them. Sar = CNCC(=O)O
resultType: Emax (%)

molecule="CC[C@H](C)[C@@H]1NC(=O)[C@H](Cc2ccc(O)cc2)NC(=O)CNC(=O)CC[C@@H](C(=O)N(C)CC(=O)N[C@@H](CO)C(=O)NCC(N)=O)NC(=O)[C@H](CC(N)=O)NC(=O)[C@H](CCC(N)=O)NC1=O [Example 28] (GYIQNE[Sar]SG-NH2; lactam N-6)" resulttype=Emax testresult=87
molecule="CC[C@H](C)[C@H](NC(=O)CN(C)C(=O)[C@@H]1CCC(=O)NCC(=O)N[C@@H](Cc2ccc(O)cc2)C(=O)N[C@@H]([C@@H](C)CC)C(=O)N[C@@H](CCC(N)=O)C(=O)N[C@@H](CC(N)=O)C(=O)N1)C(=O)NCC(N)=O [Example 33] (GYIQNE[Sar]IG-NH2; lactam N-6)" resulttype=Emax testresult=101
molecule="CC[C@H](C)[C@@H]1NC(=O)[C@H](Cc2ccc(O)cc2)NC(=O)CNC(=O)CC[C@@H](C(=O)N(C)CC(=O)N[C@H](C(=O)NCC(N)=O)C(C)C)NC(=O)[C@H](CC(N)=O)NC(=O)[C@H](CCC(N)=O)NC1=O [Example 26] (GYIQNE[Sar]VG-NH2; lactam N-6)" resulttype=Emax testresult=102
molecule="CC[C@H](C)[C@@H]1NC(=O)[C@H](Cc2ccc(O)cc2)NC(=O)CNC(=O)CC[C@@H](C(=O)N(C)CC(=O)N[C@@H](Cc2ccc(O)cc2)C(=O)NCC(N)=O)NC(=O)[C@H](CC(N)=O)NC(=O)[C@H](CCC(N)=O)NC1=O [Example 32] (GYIQNE[Sar]YG-NH2; lactam N-6)" resulttype=Emax testresult=106
